Answer each item with its documented EC50.
- measured_target: KCa3.1 (Homo sapiens, UniProt O15554+P0DP23)
- method: Whole-cell patch-clamp KCa3.1 activation (QPatch, HEK-293)
- Assay type: cell-based
- Design: host or cells: HEK-293
- details: Appendix A; read-out: KCa3.1 EC50 (converted)
One number for each entry, in µM.

Below, 3 compounds whose answers are already recorded.
[
  {
    "compound": "Cc1cc2oc(N)nc2c2ccccc12 [SKA-120, 5-Methylnaphtho[1,2-d]oxazol-2-amine]",
    "measured_target": "KCa3.1 (Homo sapiens, UniProt O15554+P0DP23)",
    "unit_spec": "µM",
    "EC50": 0.45
  },
  {
    "compound": "CC1=Nc2c(ccc3ccccc23)C1(C)C [SKA-92, 2,3,3-trimethyl-3H-benzo[g]indole]",
    "measured_target": "KCa3.1 (Homo sapiens, UniProt O15554+P0DP23)",
    "unit_spec": "µM",
    "EC50": 42
  },
  {
    "compound": "Cc1nc2c(ccc3ccccc32)s1 [SKA-74, 2-methylnaphtho[1,2-d]thiazole]",
    "measured_target": "KCa3.1 (Homo sapiens, UniProt O15554+P0DP23)",
    "unit_spec": "µM",
    "EC50": 7.8
  }
]

What measured EC50 is associated with Cc1cc2nc(N)oc2c2ccccc12 [SKA-121, 5-Methylnaphtho[2,1-d]oxazol-2-amine] on KCa3.1 (Homo sapiens, UniProt O15554+P0DP23)?
0.2
